System: CD2F1 mice, L1210 leukemia ip, survival T/C
Assay: NCI In Vivo Anticancer Drug Screen. Data for tumor model L1210 Leukemia (intraperitoneal) in CD2F1 (CDF1) mice
Conditions: endpoint: mean survival time; dose: 75.0 mg/kg/injection; schedule: Q01DX001 (ip); vehicle: other; higher = longer survival
Inconclusive results and toxic doses are left out.
Measured T/C values are reported for all entries that follow.
observable: T/C

1. CCOC(=O)c1ccccc1C(C)CC (configuration not stated)
98 % of control
2. CC(=O)Oc1c(C)ncc(C=O)c1C
101 % of control
3. O=C1/C(=C\c2ccccc2)C2OCC=C3CN4CCC56c7ccccc7N1C5C2C3CC46 (configuration not stated)
95 % of control
4. COC(=O)C[As+](c1ccccc1)(c1ccccc1)c1ccccc1
97 % of control
5. O=C(O/N=C(/CBr)c1ccccc1)c1ccccc1
101 % of control
6. CN(C)CC1CCCCCC(CN(C)C)C1=O (configuration not stated)
102 % of control
7. O=C(O)CCN1CCS(=O)(=O)C1=S
101 % of control

----------
Measured T/C values are reported for all entries that follow.
Tested on: CD2F1 mice, L1210 leukemia ip, survival T/C
Assay: NCI In Vivo Anticancer Drug Screen. Data for tumor model L1210 Leukemia (intraperitoneal) in CD2F1 (CDF1) mice
Conditions: endpoint: mean survival time; dose: 100.0 mg/kg/injection; schedule: Q01DX001 (ip); vehicle: saline with Tween-80; higher = longer survival
Inconclusive results and toxic doses are left out.
observable: T/C

1) CCCC(C(CC)CN(C)C)N(C)C (configuration not stated)
100 % of control
2) O=C1OC(=O)c2c1ccc1c(O)cccc21
101 % of control
3) O=[N+]([O-])c1ccc2c(c1[N+](=O)[O-])CCCC2
104 % of control
4) CC(C)(SCC(N)C(=O)O)c1ccc(-c2ccccc2)cc1 (configuration not stated)
88 % of control
5) O=C(NC(=S)Nc1ccc(CCO)cc1)c1cccc(Br)c1
104 % of control
6) COc1cc2c(cc1OCc1ccccc1)NC(=O)C2
91 % of control
7) O=C1/C(=C/c2ccccc2)CCS(=O)(=O)c2ccccc21
97 % of control
8) C[N+]1(C)N=C([O-])N(c2cccc3ccccc23)C1=O
98 % of control
9) COC(=O)CC1(C(=O)OC)Nc2cc(Cl)c(Cl)cc2S(=O)(=O)N1O (configuration not stated)
106 % of control
10) CCCCC=C(C1CCCC1C)C1CCCC1C (configuration not stated)
97 % of control
11) N#CCCCCCCn1cnc2c(N)ncnc21
97 % of control
12) N=S(=O)(c1ccccc1)c1ccccc1
98 % of control
13) Nc1ccc(S(=O)(=O)S(=O)(=O)c2ccc(N)cc2)cc1
93 % of control
14) N#CC(c1ccccc1)N(c1ccc(NS(=O)(=O)c2ccccc2)cc1)S(=O)(=O)c1ccccc1 (configuration not stated)
93 % of control
15) CCOC(=O)CCC(C#N)(CC(=O)OCC)C(=O)OCC (configuration not stated)
96 % of control
16) Clc1cc2ccccc2c(Cl)n1
92 % of control
17) CN(C)c1nc(N(C)C)nc(N(C)C)n1
104 % of control

----------
Measured T/C values are reported for all entries that follow.
Tested on: CD2F1 mice, L1210 leukemia ip, survival T/C
Assay: NCI In Vivo Anticancer Drug Screen. Data for tumor model L1210 Leukemia (intraperitoneal) in CD2F1 (CDF1) mice
Settings: endpoint: mean survival time; dose: 200.0 mg/kg/injection; schedule: Q01DX009 (ip); vehicle: other; higher = longer survival
Protocol: The antitumor activity of compounds was measured in mice bearing transplantable tumors. Survival or tumor size were measured and the results are expressed as the measurement made in the treated group (T) divided by the measurement made in the vehicle treated control group (C). The tumor model used in this assay is L1210 Leukemia (intraperitoneal) in CD2F1 (CDF1) mice
Inconclusive results and toxic doses are left out.
observable: T/C

1. O=c1cc(O)c(Cl)n[nH]1
92 % of control
2. O=c1n(-c2ccccc2)c(=O)n2n1CC(c1ccccc1)=N2
96 % of control
3. COc1ccc(C(OC/C=C(\C)CCC=C(C)C)OC/C=C(\C)CCC=C(C)C)cc1
95 % of control

----------
Measured T/C values are reported for all entries that follow.
Tested on: CD2F1 mice, L1210 leukemia ip, survival T/C
Experiment: NCI In Vivo Anticancer Drug Screen. Data for tumor model L1210 Leukemia (intraperitoneal) in CD2F1 (CDF1) mice
Settings: endpoint: mean survival time; dose: 100.0 mg/kg/injection; schedule: Q01DX009 (ip); vehicle: saline sonified; higher = longer survival
Experimental: The antitumor activity of compounds was measured in mice bearing transplantable tumors. Survival or tumor size were measured and the results are expressed as the measurement made in the treated group (T) divided by the measurement made in the vehicle treated control group (C). The tumor model used in this assay is L1210 Leukemia (intraperitoneal) in CD2F1 (CDF1) mice
Inconclusive results and toxic doses are left out.
observable: T/C

1) Cc1cc(=O)cc(CC(=O)C(=O)O)o1
101 % of control
2) O=CC1C2C=CCC12 (stereo unspecified)
102 % of control
3) CN1C(=O)CN=C(c2ccccn2)c2cc(Cl)ccc21
97 % of control
4) COCCOCCOCCOCCOCCOCCOCCOC(=O)Nc1ccc(C)c(NC(=O)OCCOCCOCCOCCOCCOCCOCCOC)c1
96 % of control
5) O=S(=O)(O)O
100 % of control
6) S=c1nc(-c2ccncc2)[nH][nH]1
107 % of control

----------
Tested on: CD2F1 mice, L1210 leukemia ip, survival T/C
Assay: NCI In Vivo Anticancer Drug Screen. Data for tumor model L1210 Leukemia (intraperitoneal) in CD2F1 (CDF1) mice
Settings: endpoint: mean survival time; dose: 200.0 mg/kg/injection; schedule: Q01DX009 (ip); vehicle: saline; higher = longer survival
Inconclusive results and toxic doses are left out.
Measured T/C values are reported for all entries that follow.
observable: T/C

1. CC(=O)NC(C=O)CC(C=O)CO (stereo not given)
95 % of control
2. O/N=C(/CN1CCOCC1)c1ccc(Cl)cc1
103 % of control
3. Cc1ccc(/C=C2\CC(C)(C)c3ccccc3C2=O)cc1
94 % of control
4. C=C1C(=O)OC2CC/C=C\CCC12 (stereo not given)
102 % of control
5. N#CCCN1CCOCC1
93 % of control
6. C/C=C/CNc1ccccc1
96 % of control
7. O=S(=O)(O)c1cncc(S(=O)(=O)O)n1
97 % of control
8. N#Cc1cccnc1.NCCNCCN.[Br-].[Pt+4]
98 % of control
9. CCCC1OC(C)CC(C)(C)O1 (stereo not given)
90 % of control
10. CNC(=O)Oc1ccc2c(c1)OCO2
100 % of control

----------
Measured T/C values are reported for all entries that follow.
System: CD2F1 mice, L1210 leukemia ip, survival T/C
Assay: NCI In Vivo Anticancer Drug Screen. Data for tumor model L1210 Leukemia (intraperitoneal) in CD2F1 (CDF1) mice
Settings: endpoint: median survival time; dose: 100.0 mg/kg/injection; schedule: Q01DX009 (ip); vehicle: saline with Tween-80; higher = longer survival
Inconclusive results and toxic doses are left out.
observable: T/C

1. O=[N+]([O-])c1ccc(N2CCOCC2)c2c1no[n+]2[O-]
91 % of control
2. Nc1nc(N)c2cc(S(=O)(=O)c3ccccc3)ccc2n1
102 % of control
3. O=C(CCCCCCC(=O)ON1C(=O)CCC1=O)ON1C(=O)CCC1=O
103 % of control
4. O=C(Oc1ccccc1)c1cc(O)c(O)c(O)c1
105 % of control
5. COc1cc2c[n+](C)c3c(c2cc1OC)Cc1cc2c(cc1-3)OCO2
94 % of control

----------
Measured T/C values are reported for all entries that follow.
System: CD2F1 mice, L1210 leukemia ip, survival T/C
Assay: NCI In Vivo Anticancer Drug Screen. Data for tumor model L1210 Leukemia (intraperitoneal) in CD2F1 (CDF1) mice
Details: endpoint: mean survival time; dose: 200.0 mg/kg/injection; schedule: Q04DX003 (ip); vehicle: saline with Tween-80; higher = longer survival
Inconclusive results and toxic doses are left out.
observable: T/C

1) Cc1c(N=Nc2cc[n+]([O-])cc2)ccc(N(C)C)c1C
97 % of control
2) CCOC(=O)C(C(C)=O)C(C)=O
94 % of control
3) CCC(=O)c1cccc([N+](=O)[O-])c1
102 % of control
4) CC12OCCCC1C1CCCCC12 (configuration not stated)
95 % of control
5) c1ccc(C2=C(c3ccccc3)C(c3ccccc3)(c3ccccc3)c3ccccc32)cc1
98 % of control
6) Clc1ccc(N=C(Nc2ccc(Cl)cc2)c2ccccc2)cc1
110 % of control
7) C=CC1CCCCC1C (configuration not stated)
100 % of control
